- System: HCT-116 colon
- test_description: NCI-60 one-dose screen, 48 h (100 = growth as untreated, 0 = no growth, -100 = all killed)
- condition_label: 10 µM unless noted
The panel holds about 83,000 compounds, 20% with a hit somewhere; the sample as a whole holds those more often. Calls of active or inactive are those of the source. How the source made its calls: active means growth percent below 10; inactive means the rest.
property: growth

compound="COc1ccc(/C=C/C(c2cc(OC)c(OC)c(OC)c2)n2cncn2)cc1O (stereo not given)" property=growth recorded_value="10.5% (inactive)"
compound=COc1ccc(CNc2ccc3nc(NC(=O)CN4CCCCCC4)sc3c2)cc1 property=growth recorded_value="68.6% (inactive)"
compound=CCOC(=O)c1c(C)nc2c(c1N)C(=O)C(=O)N2Cc1ccc(OC)cc1 property=growth recorded_value="25.1% (inactive)"
compound=COc1ccc(C=Nc2c(C(=O)Nc3cccc(Cl)c3C)sc3nc(C)c(C(=O)/C=C/c4ccc(OC)cc4)cc23)cc1 property=growth recorded_value="23% (inactive)"

Give growth for each of the items listed below.
1. C=C1C(=O)O[C@H]2[C@H]1CC/C(COC(=O)/C=C\C(=O)NCc1ccc(Cn3c(=O)sn(CCCCl)c3=O)cc1)=C\CC[C@@]1(C)O[C@@H]21
2. COc1cc(/C=C/C(=O)N2CCN(C(=O)c3cc(OC)c(OC)c(OC)c3)CC2)ccc1OCCCOc1cc2c(cc1OC)C(=O)N1CCC[C@H]1C=N2
3. COc1cc2c3c(c4c5ccccc5[nH]c4c2c(OC)c1OC)C(=O)N(CCN1CCCCC1)C3=O
4. N=C(N)c1ccc(OCCSCCOc2ccc(C(=N)N)cc2)cc1

["26.6% (inactive)", "7.83% (active)", "-85.6% (active)", "68.4% (inactive)"]

Items follow; give growth for each.
1. CCCCn1c(NC(C)=O)c(S(=O)(=O)c2ccccc2)c2nc3ccccc3nc21
2. CCCCCCCCCCOC(=O)c1nn(C(C)=O)c2cc(C)c(C)cc12
3. COc1cc(-c2cc(-c3ccc(Nc4nc(Nc5ccc(Cl)cc5)nc(Nc5ccc(Cl)cc5)n4)cc3)no2)cc(OC)c1OC
4. CCOC(=O)c1cnn(CC(C)O)c1NC(=O)NCc1cccc(F)c1 (stereo not given)

1: 127% (inactive); 2: 75.4% (inactive); 3: 66.2% (inactive); 4: 84% (inactive)

---

- Tested on: SF-539 CNS
- test_description: NCI-60 one-dose screen, 48 h (100 = growth as untreated, 0 = no growth, -100 = all killed)
- condition_label: 10 µM unless noted
This is part of a sample that, as a whole, favours compounds with a hit. Of some 83,000 tested, about 20% had one in any assay.
Give growth for every item shown.
One number for each entry, in %.

Each compound below has a recorded value; state its growth.
1. COc1cc2c3c(c4c5ccccc5[nH]c4c2c(OC)c1OC)C(=O)N(CCN1CCCCC1)C3=O
2. CS(=O)(=O)c1ccc(-c2nc3ccccc3n2CC(=O)N/N=C/c2ccccc2)cc1
3. CC(C)CCC[C@@H](C)[C@H]1CC[C@H]2[C@@H]3CC=C4c5sc(Nc6cc(C(F)(F)F)cc(C(F)(F)F)c6)nc5CC[C@]4(C)[C@H]3CC[C@]12C
4. NCCCNc1nc2ccccc2c2c(=O)c3cc(Cl)ccc3sc12
5. O=C(/C=C/C12c3ccccc3C(c3ccccc31)C1C(=O)NC(=O)C12)c1ccco1 (stereo not drawn)
6. CC(C)(C)OC(=O)CN1CCc2c(sc3ncnc(N4CCN(c5ccc(F)cc5)CC4)c23)C1
7. COc1ccc(-c2nc3ccc(C)cc3c3c2c(=O)n(C)c(=O)n3C)cc1OC

1. 41.4
2. 97.5
3. 98
4. 55.7
5. 30.8
6. 81.6
7. 108

Quick request: growth for each listed item, please.
1. Cc1cccc(NC(=O)Cn2cc(CN3CCN(c4ccnc5cc(Cl)ccc45)CC3)nn2)c1
2. C#CCOc1cccc(Nc2ncnc3cc(NC(=O)CCl)ccc23)c1
3. O=C(O)CC(C(=O)O)/C(=C\c1ccccc1)c1ccccc1 (stereo not drawn)
4. O=S(=O)(N=C1C(Cl)=C(Cl)C(=NS(=O)(=O)c2ccccc2)C(Cl)=C1Cl)c1ccccc1
5. COC(=O)c1nc(-c2ccccc2)oc1S(=O)(=O)N1CCCC(C)C1 (stereo not drawn)
6. Cc1c(O)cc(-c2cnc(N/N=C/c3ccccc3)s2)c(O)c1C

1: 93.4; 2: -80.4; 3: 122; 4: 109; 5: 85; 6: 100

Count: 4. Required value per item: growth.
1. NC(=O)c1ccccc1OCC(=O)Nc1ccc(Cl)c(Cl)c1
2. Nc1ccc(Br)cc1C(F)(F)F
3. CC[C@@H](C(=O)[C@@H](C)[C@@H](O)[C@H](C)[C@@H]1O[C@@H]([C@@H](CC)C(=O)ONC(=O)c2ccccc2O)CC[C@@H]1C)C1O[C@]2(C=CC(=O)[C@]3(CC[C@@](C)([C@H]4CC[C@](O)(CC)[C@H](C)O4)O3)O2)[C@H](C)C[C@@H]1C (stereo partly drawn)
4. Cc1ccc(Cc2cnc(NC(=O)/C=C/c3ccc(C)o3)s2)cc1

[85.1, 97, 27.5, 23.6]

Identify the reported growth for the following entry. `COc1ccc(/C=N/Nc2c3ccccc3nc3ccccc23)cc1`
95.4

---

- Tested on: NCI-H23 lung
- test_description: NCI-60 one-dose screen, 48 h (100 = growth as untreated, 0 = no growth, -100 = all killed)
- condition_label: 10 µM unless noted
The panel holds about 83,000 compounds, 20% with a hit somewhere; the sample as a whole holds those more often.
Mark Fulfilled only when growth stays strictly below 30%. Values equal to the cut-off are Not fulfilled.

These recorded examples may help you get a feel for the data.
compound=CC(C)n1c2ccc(Br)cc2c2c3c(c4c5ccccc5ccc4c21)C(=O)NC3=O system_tested="NCI-H23 lung" class="Not fulfilled"
compound=CSc1nc2ccc(C)cc2cc1/C=C1/C=C(c2ccccc2)NC1=O system_tested="NCI-H23 lung" class="Not fulfilled"
compound="COc1ccc(C2CC(c3ccccc3)=NN2C(=O)c2cc(OC)c(OC)c(OC)c2)cc1O (stereo unspecified)" system_tested="NCI-H23 lung" class="Not fulfilled"

hey, is growth for `COc1cc(-c2nccc3[nH]c(-c4cccc5[nH]ccc45)nc23)cc(OC)c1OC` lower than 30% or not?
Fulfilled

In the record for `Cn1c2ccccc2c2c3c(c4c5cc(Br)ccc5n(C)c4c21)C(=O)N(O)C3=O` , is growth less than 30%?
Fulfilled

Lab note: growth threshold 30%. Does this compound come in strictly under it? Cc1ccc(NC(=O)c2sc3nc(C)c(C(O)c4ccccc4)cc3c2N)cc1 (stereo unspecified)
Fulfilled

---

- System: COLO 205 colon
- test_description: NCI-60 one-dose screen, 48 h (100 = growth as untreated, 0 = no growth, -100 = all killed)
- condition_label: 10 µM unless noted
About 83,000 compounds went through this panel and 20% of them were active in at least one assay; those are over-represented in the sample as a whole.
Consider the following compounds; for each one, report its growth.
Give bare numbers, in %.

smiles_input=COc1ccc(/C=C(/C(=O)N2CCNCC2)c2cc(OC)c(OC)c(OC)c2)cc1O property=growth recorded_value=25.9
smiles_input=C=CN(C(=O)N1CCN(c2cc3c(cc2F)c(=O)c(C(=O)O)cn3C2CC2)CC1)c1nc(-c2ccc(Cl)cc2)cs1 property=growth recorded_value=84.2
smiles_input=COc1cc2ncnc(Nc3ccc(S(=O)(=O)Nc4nccs4)cc3)c2cc1OCCCN1CCCC1 property=growth recorded_value=113
smiles_input=O=C(Nc1nc(Cl)nc(Nc2ccc(N3CCOCC3=O)cc2)n1)c1ccc(Cl)s1 property=growth recorded_value=97.3
smiles_input=Nc1nc(N(Cc2ccccc2)c2ccccc2)c2cn[nH]c2n1 property=growth recorded_value=58.8

Let us move to another entry and its growth.
Fill in reported growth for this entry: `Cc1ccc(-c2nc(SCC(=O)N3CCN(c4cc5c(cc4F)c(=O)c(C(=O)O)cn5C4CC4)CC3)nc(Cl)c2C#N)cc1`
108

---

Give measured growth for each item. Keep answers brief.
- System: SK-MEL-28 melanoma
- test_description: NCI-60 one-dose screen, 48 h (100 = growth as untreated, 0 = no growth, -100 = all killed)
- condition_label: 10 µM unless noted
Compounds without any hit were thinned out: in the full panel of roughly 83,000, 20% have a hit.
One number for each entry, in %.

Examples from the recorded data:
compound=CN(C)CCCn1c2c(c3cnccc3c1=O)C(=O)c1ccccc1-2 units_label=% recorded_value=-28.1
compound=COc1ccc2[nH]cc(-c3nonc3-c3c[nH]c4ccc(Br)cc34)c2c1 units_label=% recorded_value=84.1
compound=C#Cc1cccc(Nc2ncnc3cc(NC(=O)CCl)ccc23)c1 units_label=% recorded_value=-45.1
compound="CCOC(=O)C1=C(CC(O)c2ccc(OC)cc2OC)NC(=O)NC1c1ccccc1 (centres undefined)" units_label=% recorded_value=115
compound=C=C(C)[C@@H]1CC[C@]2(C(=O)Nc3ccccn3)CC[C@]3(C)[C@H](CC[C@@H]4[C@@]5(C)CCCNC(C)(C)[C@@H]5CC[C@]43C)[C@@H]12 units_label=% recorded_value=31.9
compound=CCN(CC)CCOc1ccc(Nc2ncc3cc(-c4c(Cl)cccc4Cl)c(=O)n(CCOC)c3n2)cc1 units_label=% recorded_value=36.9
compound=Cc1ccc2c(c1)=C/C(=C\c1cc(-c3ccccc3)[nH]c1O)C(=O)N=2 units_label=% recorded_value=60.8
compound="CCn1cc(C(=O)N/N=C/c2cccc(F)c2)c(=O)c2cc(F)c(N3CCNC(C)C3)c(F)c21 (centres undefined)" units_label=% recorded_value=-64.3

Answer for every listed entry: what is its growth? The entries follow.
1. c1csc(-c2cn3nc(-c4c[nH]c5ccccc45)sc3n2)c1
2. O=C(/C=C/C12c3ccccc3C(c3ccccc31)C1C(=O)NC(=O)C12)c1ccc(I)cc1 (centres undefined)
3. C/C=C1/CN(CCCCC)CC[C@H]1C(=O)c1cc2ccccc2[nH]1
4. Cc1ccc(Cc2cnc(NC(=O)/C=C/c3ccc(C)o3)s2)cc1
5. O=C(Nc1cc(Cl)cc(Cl)c1)Oc1c(Cl)c(Cl)c(Cl)c(Cl)c1Cl
6. Nc1cc(C(=O)O)cc(-n2c(O)c(C=C3N=c4ccccc4=N3)sc2=S)c1

1: 48.5; 2: 64; 3: 111; 4: 65.5; 5: 84.8; 6: 104

Origin of measurements: PubChem BioAssay (NCI)
